// provenance: the supplement of paper PMC9170038

System: MS2 coat protein
Test: apparent KD of MS2 coat protein; designed switch direction (-1 OFF switch, 1 ON switch): -1; higher = weaker reporter binding
Conditions: Eterna round: R95; input ligand: none

{"residueSequence": "GUGAGAUAGUUAGUGGACGACAUGAGGAUCACCCAUGUGAGGGAAAUGUUGAGGAGAAAGCUUUUUGCUCGUCUUUA [JR_SV3TOV1_Sub036] (puzzle: Sensor v3, turn-off variant 1)", "apparent KD of MS2 coat protein": "119 nM"}
{"residueSequence": "UAAUAACAAGCAGGAUCCUACAUGAGGAUCACCCAUGUGCUCGUCUUAUAAAGUACUAUCACGAAAGUGAUAGUACU [Mat - Sensor v3 - turn-off var 1 - Eli Mod - D73] (puzzle: Sensor v3, turn-off variant 1)", "apparent KD of MS2 coat protein": "250 nM"}
{"residueSequence": "GAUUAUGCGAGCUUUAGGGACAUGAGGAUCACCCAUGUUCGUCUUAUUAAUCUAGGUACGCUAACAUACCUAAAUCU [JMF 39] (puzzle: Sensor v3, turn-off variant 1)", "apparent KD of MS2 coat protein": "20.6 nM"}

* * *

Test system: MS2 coat protein
Assay: apparent KD of MS2 coat protein; designed switch direction (-1 OFF switch, 1 ON switch): -1; higher = weaker reporter binding
Conditions: input ligand: FMN 200 uM
Classes are defined on apparent KD of MS2 coat protein with ranges Low = under 20 nM, Mid = from 20 nM up to 100 nM, High = 100 nM and over

{"residueSequence": "UUUUUAGAUGAAGGAUAUACUUAACAUGAGGAUCACCCAUGUGGUGUUGUGAGUGAGUGAGUUUAGUAGAAGGUCAAGUAUUUU [JMF's solution 45] (Eterna round: R96, puzzle: Exclusion NG 2)", "classAssignment": "High"}
{"residueSequence": "CGUCUGUAAGGAUAUGGUUACAUCGACAUGAGGAUCACCCAUGUGACGUGGGACUAGUGAUUAGAAGGUACGAACG [EX5 #65] (Eterna round: R97, puzzle: Exclusion 5)", "classAssignment": "Mid"}
{"residueSequence": "CUAGCGAUUGUAGGAUAUCGGACUGUUUCAGUCUGAGAAGGACAUGAGGAUCACCCAUGUGGAGGAUCGUGAGAUCCACGCUAG [JL ENG1 3.81] (Eterna round: R96, puzzle: Exclusion NG 1)", "classAssignment": "High"}
{"residueSequence": "GAGUGCUUAGGAUAUACAUGAGGAUCACCCAUGUGCUUCAGCUAGGAGACUAGCAUUGGUAGAAGGGAGUACUC [Mod of lroppy 5 - Jieux - Exclusion 3] (Eterna round: R97, puzzle: Exclusion 3)", "classAssignment": "Mid"}
{"residueSequence": "UUCACAUGGACAUGAGAUCACAUGAGGAUCACCCAUGUGAAUAACAAGCUUUUUGCUCGUCUUAUGUCCAAUAAUAA [Stov1/14-C1] (Eterna round: R97, puzzle: Sensor, turn-off variant 1)", "classAssignment": "Low"}
{"residueSequence": "GGUAGAGUGGUAGGAUAUCCGUCUGUUUCAGUCGGAGAAGGACCACAGUCACUGGGUCCUAAUAUCAUGGAGACCUGAUCUACC [pwkr exNG1 F6.12] (Eterna round: R96, puzzle: Exclusion NG 1)", "classAssignment": "High"}
{"residueSequence": "UGCCGUUGAGGAUAUACAUUGAAUUUGAUUCAUGUAAAACUACAUGAGGAUCACCCAUGUAGAAGGCAAUGGCU [Mat - Exclusion 2 - JL Mod - D63] (Eterna round: R97, puzzle: Exclusion 2)", "classAssignment": "Mid"}
{"residueSequence": "UGGUCACAUGAGGAUCACCCAUGUCAGGAUAUCUACAUUGAAGCCUCGGCUUCAAUGUAGAGAAGGGACAUAAU [E1/6-B2] (Eterna round: R97, puzzle: Exclusion 1)", "classAssignment": "High"}
{"residueSequence": "GGGAAGAACCAACAAGUAAACAUGAGGAUCACCCAUGUAAACUUCAUGUGCACGCUUUGCGUGCAAGCUCGUCUUAU [AK-miRNA-r3-14] (Eterna round: R97, puzzle: Sensor, turn-off variant 1)", "classAssignment": "Low"}
